The reported measurements were obtained from patent US11530216B2.

Test: Human liver S-9 intrinsic clearance
Type: in vitro ADME
Settings: human, s9, Human Liver S-9 Intrinsic Clearance _2
Experimental Readout: microsomal CLint at 1 μM

Which microsomal CLint at 1 μM reading was recorded for the compound [2H]c1nc2cccnc2n1Cc1cc(OC)c2c(c1)O[C@@H](C)[C@H](c1ccc(OC)nc1)O2 ?
< 1.1 µL/min/mg

Now this one: COc1ccc(C2Oc3c(OC)cc(Cn4cnc5cccnc54)cc3O[C@H]2C)cn1 (stereo partly drawn)
2.76 µL/min/mg

Here is the next compound: [2H]c1nc2cccnc2n1Cc1cc(OC)c2c(c1)O[C@H](C)[C@@H](c1ccc(OC)nc1)O2
< 1.1 µL/min/mg

* * *

Kindly state CLint scaled at 1 μM for each of the entries shown.
Assay: Human liver S-9 intrinsic clearance
Assay type: in vitro ADME
Conditions: human, s9; scaled data; read-out: Human Liver S-9 in vitro scaled Intrinsic Clearance

Field request: CLint scaled at 1 μM | item: CCN(C(C)=O)c1cccc(-c2ccnc3c(C#N)cnn23)c1 [zaleplon]
7.1 mL/min/kg

Same again, this time with OCCn1cc(-c2cnc3nnn(Cc4ccc5ncccc5c4)c3n2)cn1 [PF-4217903]
< 3.4 mL/min/kg

* * *

Assignment: determine reported CLint scaled at 1 μM for the given molecules.
Test: Human liver S-9 intrinsic clearance
Type: in vitro ADME
Settings: human, s9
Value expressed in mL/min/kg; do not type the unit.

Please look up its CLint scaled at 1 μM: N=C(N)NC(=O)c1cnn(-c2cccc3ncccc23)c1C1CC1 [zoniporide]
18.6

Moving on to the next molecule: [2H]c1nc2cccnc2n1Cc1cc(OC)c2c(c1)O[C@@H](C)[C@H](c1ccc(OC)nc1)O2 [Compound 6]
3.6

Request: COc1ccc(C2Oc3c(OC)cc(Cn4cnc5cccnc54)cc3O[C@H]2C)cn1 (stereo partly shown) [Compound 24]
9

Now the same for [2H]c1nc2cccnc2n1Cc1cc(OC)c2c(c1)O[C@H](C)[C@@H](c1ccc(OC)nc1)O2 [Compound 5]
3.6

* * *

Test: Caco-2 efflux assay
Assay type: in vitro ADME
Conditions: human
Experimental Readout: Papp B→A at 90 min, 1 μM (×10⁻⁶ cm/s)
Express it in ×10⁻⁶ cm/s; write the number only.

Could you share which Papp B→A at 90 min, 1 μM value was measured for COc1ccc(C2Oc3c(OC)cc(Cn4cnc5cccnc54)cc3O[C@H]2C)cn1 (some centres unmarked) [Compound 24] ?
25.6

Thanks! And [2H]c1nc2cccnc2n1Cc1cc(OC)c2c(c1)O[C@@H](C)[C@H](c1ccc(OC)nc1)O2 [Compound 6] ?
29.2

* * *

Give measured pIC50 for each item. Keep answers brief.
Molecular target: UniProt P10635
Sequence (P10635 whole entry): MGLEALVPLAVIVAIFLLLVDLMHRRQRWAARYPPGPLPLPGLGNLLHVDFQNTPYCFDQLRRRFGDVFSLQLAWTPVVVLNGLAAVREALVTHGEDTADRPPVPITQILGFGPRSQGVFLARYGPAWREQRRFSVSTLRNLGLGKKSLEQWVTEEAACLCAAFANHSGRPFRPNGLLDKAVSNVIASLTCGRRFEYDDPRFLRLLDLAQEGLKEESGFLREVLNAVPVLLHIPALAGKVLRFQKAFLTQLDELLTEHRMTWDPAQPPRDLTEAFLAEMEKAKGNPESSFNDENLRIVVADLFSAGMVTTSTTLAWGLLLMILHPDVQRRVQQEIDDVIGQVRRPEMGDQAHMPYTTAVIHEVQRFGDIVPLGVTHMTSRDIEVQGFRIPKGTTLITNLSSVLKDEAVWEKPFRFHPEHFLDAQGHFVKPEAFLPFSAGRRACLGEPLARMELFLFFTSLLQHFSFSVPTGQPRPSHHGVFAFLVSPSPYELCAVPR
Assay: CYP inhibition in human liver microsomes, CYP2D6
Settings: dextromethorphan 10 μM, 30 min, read-out: CYP inhibition mean IC50 (INH) isoform: CYP2D6 Substrate: dextromethorphan
pIC50: −log10 of the molar value.

Sample [2H]c1nc2cccnc2n1Cc1cc(OC)c2c(c1)O[C@@H](C)[C@H](c1ccc(OC)nc1)O2 [Compound 6] — what was its pIC50?
< 5.00

Subsequent entry: COc1ccc(C2Oc3c(OC)cc(Cn4cnc5cccnc54)cc3O[C@H]2C)cn1 (some centres unmarked) [Compound 24]
< 5.00

* * *

Assign IC50 to each entry below.
Target: CYP3A4 (Homo sapiens (Human), UniProt P08684)
Sequence (P08684 whole entry): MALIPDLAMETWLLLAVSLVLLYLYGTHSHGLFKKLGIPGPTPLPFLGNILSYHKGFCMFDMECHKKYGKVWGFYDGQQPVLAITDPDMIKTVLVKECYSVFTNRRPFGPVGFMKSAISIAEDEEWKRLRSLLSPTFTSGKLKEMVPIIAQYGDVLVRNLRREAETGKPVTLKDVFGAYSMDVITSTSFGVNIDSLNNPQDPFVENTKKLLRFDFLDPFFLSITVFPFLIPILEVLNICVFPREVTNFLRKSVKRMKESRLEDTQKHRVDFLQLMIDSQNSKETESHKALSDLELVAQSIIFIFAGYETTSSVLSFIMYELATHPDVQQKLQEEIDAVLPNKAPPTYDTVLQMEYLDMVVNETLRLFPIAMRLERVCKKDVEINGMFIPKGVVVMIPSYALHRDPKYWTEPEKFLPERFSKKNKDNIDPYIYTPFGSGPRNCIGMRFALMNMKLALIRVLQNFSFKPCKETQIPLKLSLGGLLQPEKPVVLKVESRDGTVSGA
Experiment: CYP inhibition in human liver microsomes, CYP3A4
Assay type: in vitro ADME
Settings: testosterone 60 μM, 30 min, read-out: CYP inhibition mean IC50 (INH) Isoform: CYP3A4 Substrate: testosterone

Data request, read-out IC50, for COc1ccc(C2Oc3c(OC)cc(Cn4cnc5cccnc54)cc3O[C@H]2C)cn1 (some centres unmarked)
> 10 µM

Repeat with [2H]c1nc2cccnc2n1Cc1cc(OC)c2c(c1)O[C@@H](C)[C@H](c1ccc(OC)nc1)O2
> 10 µM

* * *

Would you kindly list hepatocyte CLint at 1 μM for each of these compounds?
Assay: Human hepatocyte intrinsic clearance
Type: in vitro ADME
Settings: human, hepatocytes; raw data, AO calibration set; read-out: Human Hepatocytes Intrinsic Clearance

So what's the measured hepatocyte CLint at 1 μM for this one? OCCn1cc(-c2cnc3nnn(Cc4ccc5ncccc5c4)c3n2)cn1 [PF-4217903]
4.08 µL/min/1e6 cells

Would you kindly repeat that for CCN(C(C)=O)c1cccc(-c2ccnc3c(C#N)cnn23)c1 [zaleplon] ?
7.53 µL/min/1e6 cells

* * *

Assay: Human liver S-9 intrinsic clearance
Type: in vitro ADME
Conditions: human, s9, 2.5 mg/mL S-9, 1 μM, replicate 2; read-out: Human Liver S-9 Intrinsic Clearance _2
Protocol: Incubations were performed in 1 mg/mL human liver cytosol with high aldehyde oxidase (AO)/xanthine oxidase (XO) activity or 2.5 mg/mL human liver S-9 fraction with high AO/XO activity at 1 μM concentration of test compound in duplicate, and the concentration-time course of test compound depletion was determined after withdrawing samples from the incubation at assay time points followed by liquid chromatography with tandem mass spectrometry analysis. […]
Experimental Readout: microsomal CLint at 1 μM (µL/min/mg)
Your answer is read as µL/min/mg, so omit the unit and give the number.

Entry CCN(C(C)=O)c1cccc(-c2ccnc3c(C#N)cnn23)c1 : reported microsomal CLint at 1 μM = ?
3.32

* * *

Target: CYP3A4 (Homo sapiens (Human), UniProt P08684)
Experiment: CYP inhibition in human liver microsomes, CYP3A4
Format: in vitro ADME
Settings: midazolam 2 μM, 10 min, read-out: CYP inhibition mean IC50 (INH) Isoform: CYP3A4 Substrate: midazolam
pIC50: −log10 of the molar value.
Would you kindly list pIC50 for each of these compounds?

# pIC50 lookup, item [2H]c1nc2cccnc2n1Cc1cc(OC)c2c(c1)O[C@@H](C)[C@H](c1ccc(OC)nc1)O2
< 5.00

Next compound up: COc1ccc(C2Oc3c(OC)cc(Cn4cnc5cccnc54)cc3O[C@H]2C)cn1 (some centres unmarked)
< 5.00

* * *

Experiment: Caco-2 efflux assay
Assay type: in vitro ADME
Conditions: human
Procedure: Caco-2 permeability and efflux assays were performed in cell-based permeability model using Caco-2/TC7 cells. For permeability assays, Caco-2/TC7 cells were seeded on to Millipore Millicell 96 and for efflux assays, 24-well plates were used. The plates with cells were ready to use between 21-25 days of culturing. […] At the end of the incubation period, samples taken were analyzed using high pressure liquid chromatography with tandem mass spectrometry. […]
Experimental Readout: Papp A→B at 90 min, 1 μM (×10⁻⁶ cm/s)
The figure you give is taken to be in ×10⁻⁶ cm/s; do not add the unit.

// Papp A→B at 90 min, 1 μM lookup, key: COc1ccc(C2Oc3c(OC)cc(Cn4cnc5cccnc54)cc3O[C@H]2C)cn1 (some centres unmarked)
12.5

Next up: [2H]c1nc2cccnc2n1Cc1cc(OC)c2c(c1)O[C@@H](C)[C@H](c1ccc(OC)nc1)O2
13.5

* * *

Answer each item with its documented Human Liver Cytosol Intrinsic Clearance _2.
Assay: Human liver cytosol intrinsic clearance
Type: in vitro ADME
Settings: 1 mg/mL cytosol, 1 μM, replicate 2
Quick reminder: number only, in μL/min/mg protein, skip the unit.

Any idea what Human Liver Cytosol Intrinsic Clearance _2 was measured for CN(C)CCNC(=O)c1cccc2cc3ccccc3nc12 ?
46.8

Param item: CC[C@H]1OC(=O)[C@H](C)C(=O)[C@H](C)[C@@H](O[C@@H]2O[C@H](C)C[C@H](N(C)C)[C@H]2O)[C@](C)(OC)C[C@@H](C)C(=O)[C@H](C)[C@H]2N(C3CN([C@H](C)c4ccnc5ncccc45)C3)C(=O)O[C@]12C
6.9

Now the compound Nc1nc(OCc2ccccc2)c2nc[nH]c2n1
4.9

* * *

Test: Human hepatocyte intrinsic clearance
Format: in vitro ADME
Conditions: human, hepatocytes
Exercise: for every item that follows, state its recorded hepatocyte CLint at 1 μM.
# include the unit after the value

hepatocyte CLint at 1 μM lookup needed for [2H]c1nc2cccnc2n1Cc1cc(OC)c2c(c1)O[C@@H](C)[C@H](c1ccc(OC)nc1)O2 [Compound 6] , thanks.
7.88 µL/min/1e6 cells

Moving on to [2H]c1ccc2ncn(Cc3cc(OC)c4c(c3)O[C@@H](C)[C@H](c3ccc(OC)nc3)O4)c2n1 (racemic) [Compound 1]
10.3 µL/min/1e6 cells

Then what about the molecule [2H]c1nc2cccnc2n1Cc1cc(OC)c2c(c1)O[C@H](C)[C@@H](c1ccc(OC)nc1)O2 [Compound 5] ?
7.74 µL/min/1e6 cells

* * *

Test: Human liver cytosol intrinsic clearance
Format: in vitro ADME
Details: scaled data
Experimental Readout: Human Liver Cytosol in vitro scaled Intrinsic Clearance (mL/min/kg)
Only the number, expressed in mL/min/kg, is required.

What Human Liver Cytosol in vitro scaled Intrinsic Clearance value was documented for this molecule, CC[C@H]1OC(=O)[C@H](C)C(=O)[C@H](C)[C@@H](O[C@@H]2O[C@H](C)C[C@H](N(C)C)[C@H]2O)[C@](C)(OC)C[C@@H](C)C(=O)[C@H](C)[C@H]2N(C3CN([C@H](C)c4ccnc5ncccc45)C3)C(=O)O[C@]12C [PF-945863] ?
15.4

# repeat for CN(C)CCNC(=O)c1cccc2cc3ccccc3nc12 [DACA]
96.5

Again, but for Nc1nc(OCc2ccccc2)c2nc[nH]c2n1 [O6-benzylguanine]
10.7
